# Measured On: truncated human beta-secretase (residues 1-458, His6-tagged at the C-terminus) (Homo sapiens, UniProt P56817)
# Construct: truncated human beta-secretase (residues 1-458, His6-tagged at the C-terminus); His6 (C); made in house; host or cells: insect cells D. melanogaster S2 (baculovirus expression system (so in the source))
# Sequence (P56817 22-458): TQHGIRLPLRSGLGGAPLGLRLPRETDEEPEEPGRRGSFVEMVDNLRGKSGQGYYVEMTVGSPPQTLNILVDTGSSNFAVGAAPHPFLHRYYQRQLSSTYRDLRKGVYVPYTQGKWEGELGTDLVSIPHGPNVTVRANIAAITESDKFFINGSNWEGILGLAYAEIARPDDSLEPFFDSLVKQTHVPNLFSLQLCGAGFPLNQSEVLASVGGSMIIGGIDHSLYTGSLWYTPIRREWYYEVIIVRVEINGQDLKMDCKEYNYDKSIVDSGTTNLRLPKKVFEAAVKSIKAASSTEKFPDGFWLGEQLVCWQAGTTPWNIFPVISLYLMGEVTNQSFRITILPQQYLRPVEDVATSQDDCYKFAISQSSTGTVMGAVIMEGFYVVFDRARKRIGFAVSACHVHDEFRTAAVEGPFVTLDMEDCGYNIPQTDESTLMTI
# Run Description: BACE fluorescence quench assay
# Type: biochemical
# Conditions: in vitro enzyme activity, BACE fluorescence assay, pH 4.5; read-out: IC50
The following compounds are listed with their measured IC50 values.

Query :: Look at this compound and give its reported IC50. CN1OC2(C[C@]3(CC4CCC3OC4)Oc3ccc(-c4cccc(C#N)c4)cc32)N=C1N (single isomer, unassigned) [Compound 403]
Result :: 1000 to 5000 nM

Query :: Which IC50 value is on record for CC(=O)c1cccc(-c2ccc3c(c2)[C@]2(C[C@@]4(CCCOC4)O3)N=C(N)N(C)C2=O)c1 [Compound 427] ?
Result :: 1000 to 5000 nM

Query :: # get_value(readout='IC50', item= CN1C(=O)C2(CC(c3cccc(Cl)c3)Oc3ccc(Br)cc32)N=C1N (centres unmarked) [Compound 34] )
Result :: 1000 to 5000 nM

Query :: Find the recorded IC50 belonging to COc1cccc(C2CC3(N=C(N)N(C)C3=O)c3cc(-c4cccc(C#N)c4)ccc3O2)c1 (centres unmarked) [Compound 23] and report it.
Result :: 1000 to 5000 nM

Now look at this one.
Query :: Entry CN1C(=O)[C@@]2(C[C@@]3(CCCOC3)Oc3ccc(-c4cccc(C#N)c4)cc32)N=C1N [Compound 72b] has what IC50?
Result :: 100 to 500 nM
